# r1 water annotations
Assay: Relaxivity measurements at 1.41 T
Type: physicochemical
Conditions: water, 1.41 T, 37° C., normalized to Gd
Experimental: Relaxivity measurements at 1.41 T were performed using a MiniSpec mq60 spectrometer (Bruker Analytik, Karlsruhe, Germany) operating at a resonance frequency of 60 MHz and a temperature of 37° C. The T1 relaxation times were determined using the standard inversion recovery (IR) method with a fixed relaxation delay of at least 5×T1. The variable inversion time (TI) was calculated automatically by the standard software of the MiniSpec mq60 (8 steps). […]
measurement-label: r1 water

1) CC(C(=O)NCC(=O)NCC(CNC(=O)CNC(=O)C(C)N1CCN(CC(=O)[O-])CCN(CC(=O)[O-])CCN(CC(=O)[O-])CC1)(CNC(=O)CNC(=O)C(C)N1CCN(CC(=O)[O-])CCN(CC(=O)[O-])CCN(CC(=O)[O-])CC1)CNC(=O)CNC(=O)C(C)N1CCN(CC(=O)[O-])CCN(CC(=O)[O-])CCN(CC(=O)[O-])CC1)N1CCN(CC(=O)[O-])CCN(CC(=O)[O-])CCN(CC(=O)[O-])CC1.[Gd+3].[Gd+3].[Gd+3].[Gd+3] (centres unmarked); 10.1 L/mmol/s
2) C[C@H](C(=O)NCC(=O)NCC(CNC(=O)CNC(=O)[C@@H](C)N1CCN(CC(=O)[O-])CCN(CC(=O)[O-])CCN(CC(=O)[O-])CC1)(CNC(=O)CNC(=O)[C@@H](C)N1CCN(CC(=O)[O-])CCN(CC(=O)[O-])CCN(CC(=O)[O-])CC1)CNC(=O)CNC(=O)[C@@H](C)N1CCN(CC(=O)[O-])CCN(CC(=O)[O-])CCN(CC(=O)[O-])CC1)N1CCN(CC(=O)[O-])CCN(CC(=O)[O-])CCN(CC(=O)[O-])CC1.[Gd+3].[Gd+3].[Gd+3].[Gd+3]; 9.5 L/mmol/s

---

assay: Relaxivity measurements at 1.41 T; assay type: physicochemical; conditions: water, 1.41 T, 37° C., normalized to Gd
measurement-label: r1 water (L/mmol/s)

1) CC(C(=O)NCC(=O)N1CCN(C(=O)CNC(=O)C(C)N2CCN(CC(=O)[O-])CCN(CC(=O)[O-])CCN(CC(=O)[O-])CC2)CCN(C(=O)CNC(=O)C(C)N2CCN(CC(=O)[O-])CCN(CC(=O)[O-])CCN(CC(=O)[O-])CC2)CCN(C(=O)CNC(=O)C(C)N2CCN(CC(=O)[O-])CCN(CC(=O)[O-])CCN(CC(=O)[O-])CC2)CC1)N1CCN(CC(=O)[O-])CCN(CC(=O)[O-])CCN(CC(=O)[O-])CC1.[Gd+3].[Gd+3].[Gd+3].[Gd+3] (stereo not drawn); 10.8
2) O=C([O-])CN1CCN(CC(=O)[O-])CCN(CC(=O)NCC(CNC(=O)CN2CCN(CC(=O)[O-])CCN(CC(=O)[O-])CCN(CC(=O)[O-])CC2)(CNC(=O)CN2CCN(CC(=O)[O-])CCN(CC(=O)[O-])CCN(CC(=O)[O-])CC2)CNC(=O)CN2CCN(CC(=O)[O-])CCN(CC(=O)[O-])CCN(CC(=O)[O-])CC2)CCN(CC(=O)[O-])CC1.[Gd+3].[Gd+3].[Gd+3].[Gd+3]; 7.3
3) C[C@@H](C(=O)NCC(=O)NCC(CNC(=O)CNC(=O)[C@H](C)N1CCN(CC(=O)[O-])CCN(CC(=O)[O-])CCN(CC(=O)[O-])CC1)(CNC(=O)CNC(=O)[C@H](C)N1CCN(CC(=O)[O-])CCN(CC(=O)[O-])CCN(CC(=O)[O-])CC1)CNC(=O)CNC(=O)[C@H](C)N1CCN(CC(=O)[O-])CCN(CC(=O)[O-])CCN(CC(=O)[O-])CC1)N1CCN(CC(=O)[O-])CCN(CC(=O)[O-])CCN(CC(=O)[O-])CC1.[Gd+3].[Gd+3].[Gd+3].[Gd+3]; 9.4
